Biological target: NRAS Q61K (Homo sapiens (Human), UniProt P01111+P62937, Q61K)
Sequence (P01111 whole entry Q61K): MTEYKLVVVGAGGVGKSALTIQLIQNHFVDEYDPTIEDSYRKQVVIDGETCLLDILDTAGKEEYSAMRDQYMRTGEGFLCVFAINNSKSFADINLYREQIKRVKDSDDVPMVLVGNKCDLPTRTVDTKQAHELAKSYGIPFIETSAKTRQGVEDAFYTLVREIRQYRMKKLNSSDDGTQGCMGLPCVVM
Sequence (P62937 whole entry): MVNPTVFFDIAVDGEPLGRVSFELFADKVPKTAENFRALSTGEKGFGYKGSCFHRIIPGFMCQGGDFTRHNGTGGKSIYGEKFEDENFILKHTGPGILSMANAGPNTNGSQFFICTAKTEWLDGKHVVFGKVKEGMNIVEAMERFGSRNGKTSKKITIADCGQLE
Experiment: Ras-Raf (BRAF RBD) disruption / FRET / MOA assay, NRAS Q61K
Assay type: biochemical
Details: NRAS Q61K; Ras-Raf disruption/FRET/MOA assay; read-out: IC50* NRAS Q61K FRET data
Experimental: The purpose of this biochemical assay is to measure the ability of test compounds to facilitate ternary complex formation between a nucleotide-loaded Ras isoform and cyclophilin A; the resulting ternary complex disrupts binding to a BRAF^RBD construct, inhibiting Ras signaling through a RAF effector. […]. Compound is present in plate wells as a 10-point 3-fold dilution series starting at a final concentration of 30 μM. […]
quantityName: IC50

Would you please look over these solved cases?
C=CC(=O)N1CCN(C(=O)N(C)[C@H](C(=O)N[C@H]2Cc3nc(cs3)-c3ccc4c(c3)c(c(-c3cccnc3[C@H](C)OC)n4CC)CC(C)(C)COC(=O)[C@@H]3CCCN(N3)C2=O)C(C)C)[C@@H]2C[C@@H]21 (atropisomer, axis not shown)    0.01 to 0.1 µM
C=CC(=O)N1CCOC2(C1)CN(C(=O)N(C)[C@H](C(=O)N[C@H]1Cc3nc(cs3)-c3ccc4c(c3)c(c(-c3cccnc3[C@H](C)OC)n4CC(F)(F)F)CC(C)(C)COC(=O)[C@@H]3CCCN(N3)C1=O)C(C)C)C2 (atropisomer, axis not shown)    0.1 to 1 µM

Read the next record carefully.
Entry under test: C=CC(=O)N1CCN(C(=O)N(C)[C@H](C(=O)N[C@H]2Cc3nc(cs3)-c3ccc4c(c3)c(c(-c3cccnc3[C@H](C)OC)n4CC)CC(C)(C)COC(=O)[C@@H]3CCCN(N3)C2=O)C(C)C)[C@H]2C[C@H]21 (atropisomer, axis not shown) . Its IC50 was 0.01 to 0.1 µM

Data origin: patent US11566007B2
